Biological target: Paired box protein Pax-8 (Homo sapiens, UniProt Q06710)
Sequence (Q06710 whole entry): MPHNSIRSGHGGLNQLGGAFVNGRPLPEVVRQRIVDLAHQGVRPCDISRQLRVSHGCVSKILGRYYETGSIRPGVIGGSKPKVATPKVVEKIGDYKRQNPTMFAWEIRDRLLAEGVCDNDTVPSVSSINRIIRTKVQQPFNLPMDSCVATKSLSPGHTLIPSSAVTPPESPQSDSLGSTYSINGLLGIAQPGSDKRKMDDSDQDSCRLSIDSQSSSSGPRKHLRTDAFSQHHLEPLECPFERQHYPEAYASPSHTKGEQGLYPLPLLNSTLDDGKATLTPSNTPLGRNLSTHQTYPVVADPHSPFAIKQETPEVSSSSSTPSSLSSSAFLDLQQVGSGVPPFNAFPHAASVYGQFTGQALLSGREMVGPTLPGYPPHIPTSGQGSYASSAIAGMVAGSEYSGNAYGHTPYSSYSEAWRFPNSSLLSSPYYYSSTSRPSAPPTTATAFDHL
Experiment: inhibitors of PAX8-driven TPO luciferase reporter, dose response, RMG-I cells, cherry-pick (AID 687027);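 further: luciferase reporter driven by Pax8 target thyroperoxidase promoter measured by SteadyGlo luminescence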
Assay type: functional, cell-based
Activity calls are given as the source filed them. How the calls were made is not given here.
Measured endpoint: AC50

Field: example entries. Status: answers known.
{"Compound string": "C[C@@H]1CCCCO[C@@H](CN(C)Cc2ccc(Cl)c(Cl)c2)[C@H](C)CN([C@H](C)CO)C(=O)c2cc(NS(=O)(=O)c3ccc(F)cc3)ccc2O1", "AC50": "8.2 µM (active)"}
{"Compound string": "O=C(Nc1cccc(Cl)c1)Nc1nnc(-c2ccncc2)s1", "AC50": "2.97 µM (active)"}
{"Compound string": "C[C@H](CO)N1C[C@H](C)[C@@H](CN(C)Cc2ccc(-c3ccccc3)cc2)Oc2ccc(NS(=O)(=O)c3ccc(F)cc3)cc2CC1=O", "AC50": "8.82 µM (active)"}
{"Compound string": "COc1ccc2c3c(n(C)c2c1)[C@H](CO)N(Cc1ccccc1)CC31CCN(S(=O)(=O)c2ccc(C)cc2)CC1", "AC50": "6.41 µM (active)"}

What measured AC50 goes with COc1ccc(C(=O)CCS(=O)(=O)c2ccc(C)cc2)cc1OC ?
9.82 µM (active)
